These measurements were taken from patent US20210284618A1.

- MEASUREMENT TARGET: CYP2B6 (Homo sapiens, UniProt P20813)
- Construct: host or cells: yeast microsomes (Saccharosomes)
- Sequence (P20813 whole entry): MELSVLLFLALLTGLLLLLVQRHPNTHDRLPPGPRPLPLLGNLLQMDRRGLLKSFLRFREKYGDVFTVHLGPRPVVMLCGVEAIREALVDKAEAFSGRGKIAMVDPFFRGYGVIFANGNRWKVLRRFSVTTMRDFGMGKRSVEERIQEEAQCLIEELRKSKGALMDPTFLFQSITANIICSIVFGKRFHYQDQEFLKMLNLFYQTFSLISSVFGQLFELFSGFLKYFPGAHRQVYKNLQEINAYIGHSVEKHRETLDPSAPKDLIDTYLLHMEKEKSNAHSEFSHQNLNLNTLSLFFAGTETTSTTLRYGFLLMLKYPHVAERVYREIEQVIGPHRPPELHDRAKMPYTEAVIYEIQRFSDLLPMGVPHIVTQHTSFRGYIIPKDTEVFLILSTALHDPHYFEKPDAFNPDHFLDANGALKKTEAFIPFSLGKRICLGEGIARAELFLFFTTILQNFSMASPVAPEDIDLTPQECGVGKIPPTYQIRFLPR
- PROTOCOL SUMMARY: CYP2B6 inhibition in Saccharosomes
- Format: biochemical
- CONDITION: Saccharosomes containing CYP2B6
ASSAY METRIC: inhibition at 20 µM

[[record]]
compound = "COc1c(C(=O)/C=C/c2cccnc2)c(O)c(OC)c2occc12 [Compound 8]"
value_observed = "15%"


====

- MEASUREMENT TARGET: CYP2C19 (Homo sapiens, UniProt P33261)
- Construct: host or cells: yeast microsomes (Saccharosomes)
- Sequence (P33261 whole entry): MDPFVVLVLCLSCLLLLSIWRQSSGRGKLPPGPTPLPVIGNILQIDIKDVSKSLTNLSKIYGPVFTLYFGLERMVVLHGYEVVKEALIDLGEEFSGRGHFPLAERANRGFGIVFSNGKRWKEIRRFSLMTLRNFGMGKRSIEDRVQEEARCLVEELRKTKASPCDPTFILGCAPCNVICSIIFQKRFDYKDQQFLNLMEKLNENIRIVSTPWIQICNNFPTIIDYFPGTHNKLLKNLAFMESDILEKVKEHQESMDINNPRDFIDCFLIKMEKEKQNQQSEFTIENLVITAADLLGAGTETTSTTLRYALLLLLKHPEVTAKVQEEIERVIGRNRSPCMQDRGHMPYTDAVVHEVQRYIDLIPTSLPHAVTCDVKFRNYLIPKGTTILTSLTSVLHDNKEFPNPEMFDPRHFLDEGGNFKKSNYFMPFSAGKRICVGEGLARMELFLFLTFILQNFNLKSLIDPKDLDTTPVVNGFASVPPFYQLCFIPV
- PROTOCOL SUMMARY: CYP2C19 inhibition in Saccharosomes
- Type: biochemical
- CONDITION: Saccharosomes containing CYP2C19
ASSAY METRIC: inhibition at 20 µM

[[record]]
molecular_string = "COc1c(C(=O)/C=C/c2cccnc2)c(O)c(OC)c2occc12"
value_observed = "7%"


====

- MEASUREMENT TARGET: CYP2C18 (Homo sapiens, UniProt P33260)
- Construct: host or cells: yeast microsomes (Saccharosomes)
- Sequence (P33260 26-490): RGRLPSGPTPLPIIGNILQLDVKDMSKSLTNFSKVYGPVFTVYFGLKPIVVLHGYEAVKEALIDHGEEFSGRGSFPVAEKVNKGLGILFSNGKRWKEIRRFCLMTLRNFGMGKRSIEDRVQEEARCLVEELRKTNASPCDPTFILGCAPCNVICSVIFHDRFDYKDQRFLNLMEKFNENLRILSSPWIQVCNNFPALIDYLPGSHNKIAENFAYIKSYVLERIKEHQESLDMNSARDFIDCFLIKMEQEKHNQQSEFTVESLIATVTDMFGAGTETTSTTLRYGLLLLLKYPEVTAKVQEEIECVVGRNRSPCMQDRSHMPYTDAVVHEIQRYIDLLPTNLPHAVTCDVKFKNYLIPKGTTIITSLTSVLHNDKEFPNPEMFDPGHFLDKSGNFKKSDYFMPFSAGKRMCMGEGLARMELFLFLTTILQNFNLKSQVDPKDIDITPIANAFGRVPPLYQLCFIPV
- PROTOCOL SUMMARY: CYP2C18 inhibition in Saccharosomes
- Type: biochemical
- CONDITION: Saccharosomes containing CYP2C18
ASSAY METRIC: inhibition at 20 µM (%)

[[record]]
compound = "COc1c(C(=O)/C=C/c2cccnc2)c(O)c(OC)c2occc12 [Compound 8]"
assay_metric = "inhibition at 20 µM"
value_observed = 63


====

- MEASUREMENT TARGET: CYP1B1 (Homo sapiens, UniProt Q16678)
- Sequence (Q16678 whole entry): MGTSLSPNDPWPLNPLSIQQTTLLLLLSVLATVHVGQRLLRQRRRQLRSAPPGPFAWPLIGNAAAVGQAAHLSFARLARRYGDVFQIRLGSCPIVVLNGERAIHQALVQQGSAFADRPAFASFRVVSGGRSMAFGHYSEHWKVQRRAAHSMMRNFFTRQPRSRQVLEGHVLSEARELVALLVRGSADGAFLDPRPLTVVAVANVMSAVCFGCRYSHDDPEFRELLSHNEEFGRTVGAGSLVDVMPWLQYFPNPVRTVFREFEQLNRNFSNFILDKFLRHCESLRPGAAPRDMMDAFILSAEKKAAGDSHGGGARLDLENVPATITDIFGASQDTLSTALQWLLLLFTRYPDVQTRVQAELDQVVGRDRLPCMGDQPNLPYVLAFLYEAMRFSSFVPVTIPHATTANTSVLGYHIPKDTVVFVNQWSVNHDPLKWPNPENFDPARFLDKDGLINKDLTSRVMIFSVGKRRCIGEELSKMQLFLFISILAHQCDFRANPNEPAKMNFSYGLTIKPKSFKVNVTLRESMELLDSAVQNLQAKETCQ
- PROTOCOL SUMMARY: In-vitro CYP450 1B1 enzyme inhibition in Saccharosomes
- Format: biochemical
- Parameters: purchased CYP Design Ltd; host or cells: yeast microsomes (Saccharosomes)
ASSAY METRIC: IC50 (nM)

[[record]]
molecular_string = "COc1c(C(=O)/C=C/c2cccnc2)c(O)c(OC)c2occc12"
value_observed = 660


====

- MEASUREMENT TARGET: CYP1A1 (Homo sapiens, UniProt P04798)
- Construct: host or cells: yeast microsomes (Saccharosomes)
- Sequence (P04798 1-512): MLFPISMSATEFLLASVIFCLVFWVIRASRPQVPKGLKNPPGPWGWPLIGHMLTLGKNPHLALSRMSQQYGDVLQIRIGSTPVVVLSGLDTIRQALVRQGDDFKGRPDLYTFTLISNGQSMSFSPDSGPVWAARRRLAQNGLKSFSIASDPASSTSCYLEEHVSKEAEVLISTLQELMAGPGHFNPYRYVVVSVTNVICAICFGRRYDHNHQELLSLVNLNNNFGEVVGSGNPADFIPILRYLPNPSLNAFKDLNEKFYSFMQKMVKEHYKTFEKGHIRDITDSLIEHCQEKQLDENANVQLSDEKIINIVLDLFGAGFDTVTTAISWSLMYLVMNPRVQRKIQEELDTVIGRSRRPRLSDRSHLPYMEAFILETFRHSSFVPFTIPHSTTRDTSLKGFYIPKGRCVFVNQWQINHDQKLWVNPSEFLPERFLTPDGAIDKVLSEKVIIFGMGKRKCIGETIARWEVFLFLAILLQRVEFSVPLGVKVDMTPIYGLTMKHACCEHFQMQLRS
- PROTOCOL SUMMARY: In-vitro CYP450 1A1 enzyme inhibition in Saccharosomes
- Assay type: biochemical
- CONDITION: human, Saccharosomes containing CYP1A1, pH 7.4, probe ethoxyresorufin (5 μM), % inhibition of CYP1A1 in Saccharosomes at 10 μM, 10 μM test compound, 5 μM ethoxyresorufin
Property: inhibition at 20 min, 10 μM; scope: individual compounds
ASSAY METRIC: inhibition at 20 min, 10 μM

[[record]]
molecular_string = "COc1c(C(=O)/C=C/c2ccccc2F)c(O)c(OC)c2occc12"
measurement_target = "CYP1A1 (Homo sapiens, UniProt P04798)"
assay_metric = "inhibition at 20 min, 10 μM"
value_observed = "41.1%"

[[record]]
molecular_string = "COc1ccc(/C=C/C(=O)c2c(O)c(OC)c3occc3c2OC)cc1"
measurement_target = "CYP1A1 (Homo sapiens, UniProt P04798)"
assay_metric = "inhibition at 20 min, 10 μM"
value_observed = "28.9%"

[[record]]
molecular_string = "COc1c(C(=O)/C=C/c2ccc3cc4ccccc4cc3c2)c(O)c(OC)c2occc12"
measurement_target = "CYP1A1 (Homo sapiens, UniProt P04798)"
assay_metric = "inhibition at 20 min, 10 μM"
value_observed = "43.4%"

[[record]]
molecular_string = "COc1c(C(=O)/C=C/c2ccccc2Cl)c(O)c(OC)c2occc12"
measurement_target = "CYP1A1 (Homo sapiens, UniProt P04798)"
assay_metric = "inhibition at 20 min, 10 μM"
value_observed = "23.6%"

[[record]]
molecular_string = "COc1c(C(=O)/C=C/c2ccc(F)c(Br)c2)c(O)c(OC)c2occc12"
measurement_target = "CYP1A1 (Homo sapiens, UniProt P04798)"
assay_metric = "inhibition at 20 min, 10 μM"
value_observed = "> 80%"

[[record]]
molecular_string = "COc1c(C(=O)/C=C/c2ccc(F)cc2)c(O)c(OC)c2occc12"
measurement_target = "CYP1A1 (Homo sapiens, UniProt P04798)"
assay_metric = "inhibition at 20 min, 10 μM"
value_observed = "> 80%"

[[record]]
molecular_string = "COc1c(C(=O)/C=C/c2ccc3ccccc3c2)c(O)c(OC)c2occc12"
measurement_target = "CYP1A1 (Homo sapiens, UniProt P04798)"
assay_metric = "inhibition at 20 min, 10 μM"
value_observed = "49.7%"

[[record]]
molecular_string = "COc1c(C(=O)/C=C/c2ccsc2)c(O)c(OC)c2occc12"
measurement_target = "CYP1A1 (Homo sapiens, UniProt P04798)"
assay_metric = "inhibition at 20 min, 10 μM"
value_observed = "> 80%"

[[record]]
molecular_string = "COc1c(C(=O)/C=C/c2ccc3c(c2)OCO3)c(O)c(OC)c2occc12"
measurement_target = "CYP1A1 (Homo sapiens, UniProt P04798)"
assay_metric = "inhibition at 20 min, 10 μM"
value_observed = "48.4%"

